ASSAY_SYSTEM: human IL4Rα expressed on HEK293T-IL4Rα-STAT6-STAT6LUC-LB2 cells (human, UniProt P24394 26-825)
ASSAY: cell-based or functional assay
MEASURED_ENDPOINT: Inhibition on IL13 induced STAT6 phosphorylation (IC50, nM)

| BINDER | RESULT_NUMBER |
| --- | --- |
| chimeric antibody C2C1A1A1 (antibody, human IgG4 S228P, kappa, V domains shown, Mouse variable domains on human IgG4/kappa; also called Chimeric C2C1A1A1; chC2C1A1A1) VH: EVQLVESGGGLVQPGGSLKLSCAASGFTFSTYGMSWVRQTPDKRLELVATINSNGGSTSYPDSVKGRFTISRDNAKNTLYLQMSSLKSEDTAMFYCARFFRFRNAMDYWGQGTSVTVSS VL: DIQMTQSPASLSASVGETVTITCRTSENIYSYLAWYQQKQGKSPQFLVYNAKTLAEGVPSRFSGSGSGTQFSLNINSLQSEDFGSYYCQHYYGPPTWTFGGGTKLEIKR | 0.56 |
| mouse antibody B8G11F2B7G5E8 (antibody, V domains shown, Mouse hybridoma mAb; also called Mouse B8G11F2B7G5E8; mAb B8G11F2B7G5E8) VH: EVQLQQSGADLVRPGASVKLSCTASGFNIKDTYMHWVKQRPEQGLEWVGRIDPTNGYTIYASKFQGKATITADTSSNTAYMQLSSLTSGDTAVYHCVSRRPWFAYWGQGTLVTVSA VL: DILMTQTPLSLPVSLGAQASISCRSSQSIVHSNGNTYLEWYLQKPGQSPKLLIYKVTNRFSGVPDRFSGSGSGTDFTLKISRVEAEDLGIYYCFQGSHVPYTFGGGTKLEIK | 0.6 |
| mouse antibody C2C1A1A1 (antibody, V domains shown, Mouse hybridoma mAb; also called Mouse C2C1A1A1) VH: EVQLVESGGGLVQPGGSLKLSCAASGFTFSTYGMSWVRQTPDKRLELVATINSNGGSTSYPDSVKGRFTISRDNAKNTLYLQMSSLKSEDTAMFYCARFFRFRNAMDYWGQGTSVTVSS VL: DIQMTQSPASLSASVGETVTITCRTSENIYSYLAWYQQKQGKSPQFLVYNAKTLAEGVPSRFSGSGSGTQFSLNINSLQSEDFGSYYCQHYYGPPTWTFGGGTKLEIK | 0.27 |
| chimeric antibody B8G11F2B7G5E8 (antibody, human IgG4 S228P, kappa, V domains shown, Mouse variable domains on human IgG4/kappa; also called Chimeric B8G11F2B7G5E8; chB8G11F2B7G5E8) VH: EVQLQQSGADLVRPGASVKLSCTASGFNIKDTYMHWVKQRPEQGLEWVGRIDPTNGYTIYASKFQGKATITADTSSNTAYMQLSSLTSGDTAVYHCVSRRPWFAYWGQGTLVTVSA VL: DILMTQTPLSLPVSLGAQASISCRSSQSIVHSNGNTYLEWYLQKPGQSPKLLIYKVTNRFSGVPDRFSGSGSGTDFTLKISRVEAEDLGIYYCFQGSHVPYTFGGGTKLEIKR | 0.76 |

Just for reference, patent US20230105029A1 is where these values come from.
